The reported numbers originate from patent US5281263A.

run description: solubility of the dye in water
Assay type: physicochemical
particulars: 25° C., pH 9.5
reported metric: solubility

The compound identified as O=C(O)c1ccc(Nc2ccc3cc(S(=O)(=O)O)c(N=Nc4ccc(N=Nc5cccc(C(=O)O)c5)c5ccccc45)c(O)c3c2)cc1 registered its solubility at ~80 mg/mL

====

run description: solubility of the dye in water
Format: physicochemical
particulars: temperature and pH not given
Overview of recorded solubility for various molecules

structure notation: O=C(O)c1cccc(N=Nc2ccc(N=Nc3c(S(=O)(=O)O)cc4ccc(Nc5cccc(C(=O)O)c5)cc4c3O)c3cc(S(=O)(=O)O)ccc23)c1
solubility: ~100 mg/mL

Okay, next one:
# solubility (molecule: O=C(O)c1ccc(N=Nc2ccc(N=Nc3c(S(=O)(=O)O)cc4ccc(Nc5cccc(C(=O)O)c5)cc4c3O)c3ccccc23)cc1 ) is ~80 mg/mL

====

run description: solubility of the dye in water
Assay type: physicochemical
particulars: 25° C.
reported metric: solubility

Record summary for O=C(O)c1ccc(N=Nc2ccc(N=Nc3c(S(=O)(=O)O)cc4ccc(Nc5ccc(C(=O)O)cc5)cc4c3O)c3ccccc23)cc1 : reported solubility = ~80 mg/mL

====

run description: absorption of the dye: lambda max and E max
Assay type: physicochemical
reported metric: lambda max (nm)
Numeric answer only, unit nm assumed.

structure notation: O=C(O)c1ccc(Nc2ccc3cc(S(=O)(=O)O)c(N=Nc4ccc(N=Nc5cccc(C(=O)O)c5)c5ccccc45)c(O)c3c2)cc1
result unit: nm
assay result: 558

Query O=C(O)c1ccc(N=Nc2ccc(N=Nc3c(S(=O)(=O)O)cc4ccc(Nc5ccc(C(=O)O)cc5)cc4c3O)c3ccccc23)cc1 yields lambda max of 567

// lambda max value for O=C(O)c1ccc(Nc2ccc3cc(S(=O)(=O)O)c(N=Nc4ccc(N=Nc5cccc(C(=O)O)c5)c5ccc(S(=O)(=O)O)cc45)c(O)c3c2)cc1 : 588

For O=C(O)c1cccc(N=Nc2ccc(N=Nc3c(S(=O)(=O)O)cc4ccc(Nc5cccc(C(=O)O)c5)cc4c3O)c3cc(S(=O)(=O)O)ccc23)c1 the compound record lists lambda max as 578

lambda max reading for O=C(O)c1ccc(N=Nc2ccc(N=Nc3c(S(=O)(=O)O)cc4ccc(Nc5cccc(C(=O)O)c5)cc4c3O)c3ccccc23)cc1 : 553

====

run description: solubility of the dye in water
Assay type: physicochemical
particulars: 25° C., pH 8.5
reported metric: solubility

The reported value for O=C(O)c1ccc(Nc2ccc3cc(S(=O)(=O)O)c(N=Nc4ccc(N=Nc5cccc(C(=O)O)c5)c5ccc(S(=O)(=O)O)cc45)c(O)c3c2)cc1 in terms of solubility is 130 to 150 mg/mL
